As shown below, each of these compounds has a reported Avg. POC value.
Target: MST3 (Homo sapiens (Human), UniProt Q9Y6E0)
Sequence (Q9Y6E0 whole entry): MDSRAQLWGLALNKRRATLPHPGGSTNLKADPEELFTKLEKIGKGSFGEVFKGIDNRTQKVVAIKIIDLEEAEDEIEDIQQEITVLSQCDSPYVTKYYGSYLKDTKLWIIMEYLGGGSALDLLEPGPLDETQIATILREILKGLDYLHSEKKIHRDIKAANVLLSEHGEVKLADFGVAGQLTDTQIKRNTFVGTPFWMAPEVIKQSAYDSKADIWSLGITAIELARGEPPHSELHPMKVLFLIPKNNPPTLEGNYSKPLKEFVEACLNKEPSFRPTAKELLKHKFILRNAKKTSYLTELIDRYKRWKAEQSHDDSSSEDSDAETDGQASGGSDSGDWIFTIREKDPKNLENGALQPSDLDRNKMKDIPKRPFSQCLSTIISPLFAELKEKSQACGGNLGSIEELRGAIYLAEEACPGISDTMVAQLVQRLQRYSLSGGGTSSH
Assay: KinaseProfiler off-target kinase profiling
Type: biochemical
Details: 10 μM, ATP near Km
Express the result in POC but write the number alone.

Sample records with Avg. POC:
• Cc1c(-c2cnn(C)c2)nn(-c2ccccc2)c1NC(=O)NC1CCOc2cc(F)ccc21 (stereo not shown) [Example 12] = 131.5
• Cc1c(-c2cnn(C)c2)nn(-c2ccccc2)c1NC(=O)N[C@H]1CCCc2ccccc21 [Example 2] = 120
• Cc1c(-c2ccc(=O)n(C)c2)nn(-c2ccccc2)c1NC(=O)NC1CN(CC(F)(F)F)Cc2ccccc21 (stereo not shown) [Example 26] = 108.5

Shifting focus to the compound that follows.
Asked: So what does the record say about Avg. POC for COCc1ccc2c(c1)C(NC(=O)Nc1c(C)c(-c3cnn(C)c3)nn1-c1ccccc1)COC2 (stereo not shown) [Example 32] ?
Given back: 130.5

* * *

Target: Flt1 (Homo sapiens (Human), UniProt P17948)
Sequence (P17948 27-1338): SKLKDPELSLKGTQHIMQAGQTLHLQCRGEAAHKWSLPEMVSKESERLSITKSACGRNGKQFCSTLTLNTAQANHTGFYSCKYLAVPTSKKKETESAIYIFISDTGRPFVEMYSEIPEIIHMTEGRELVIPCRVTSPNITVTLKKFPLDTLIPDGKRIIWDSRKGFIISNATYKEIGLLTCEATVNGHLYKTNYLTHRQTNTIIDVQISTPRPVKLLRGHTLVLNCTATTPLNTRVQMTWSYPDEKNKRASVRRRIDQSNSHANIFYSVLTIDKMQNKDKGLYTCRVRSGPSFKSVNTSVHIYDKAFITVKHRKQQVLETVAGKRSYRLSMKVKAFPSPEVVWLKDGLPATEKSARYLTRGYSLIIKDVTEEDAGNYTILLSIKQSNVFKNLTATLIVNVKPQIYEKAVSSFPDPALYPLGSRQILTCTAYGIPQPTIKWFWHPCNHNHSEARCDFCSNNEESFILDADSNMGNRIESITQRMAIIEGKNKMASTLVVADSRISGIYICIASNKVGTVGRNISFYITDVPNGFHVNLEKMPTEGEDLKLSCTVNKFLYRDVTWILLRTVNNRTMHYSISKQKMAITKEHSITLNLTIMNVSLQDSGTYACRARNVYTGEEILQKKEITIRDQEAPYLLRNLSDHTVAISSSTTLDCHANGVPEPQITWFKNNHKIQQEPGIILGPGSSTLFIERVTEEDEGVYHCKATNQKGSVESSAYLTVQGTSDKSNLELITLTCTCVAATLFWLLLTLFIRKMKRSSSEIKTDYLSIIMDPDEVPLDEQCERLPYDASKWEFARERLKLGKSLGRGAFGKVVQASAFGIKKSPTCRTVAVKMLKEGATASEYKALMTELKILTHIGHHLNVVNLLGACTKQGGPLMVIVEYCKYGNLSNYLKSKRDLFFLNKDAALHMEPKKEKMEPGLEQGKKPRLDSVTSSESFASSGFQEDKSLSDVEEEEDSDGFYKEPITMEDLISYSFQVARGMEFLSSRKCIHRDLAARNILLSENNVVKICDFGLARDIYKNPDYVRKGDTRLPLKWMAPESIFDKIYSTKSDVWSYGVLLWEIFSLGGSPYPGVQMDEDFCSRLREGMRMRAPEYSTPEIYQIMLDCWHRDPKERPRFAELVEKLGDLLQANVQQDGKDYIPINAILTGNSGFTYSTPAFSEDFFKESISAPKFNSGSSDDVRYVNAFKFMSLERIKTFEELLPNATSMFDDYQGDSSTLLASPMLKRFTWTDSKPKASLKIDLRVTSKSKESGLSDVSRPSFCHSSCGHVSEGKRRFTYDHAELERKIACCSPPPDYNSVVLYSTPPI
Experiment: KinaseProfiler off-target kinase profiling
Type: biochemical
Settings: 10 μM, ATP near Km
As shown below, each of these compounds has a reported Avg. POC value.
Express the result in POC but write the number alone.

Sample records with Avg. POC:
• Cc1c(-c2cnn(C)c2)nn(-c2ccccc2)c1NC(=O)N[C@H]1CCCc2ccccc21 = 105.5
• COCc1ccc2c(c1)C(NC(=O)Nc1c(C)c(-c3cnn(C)c3)nn1-c1ccccc1)COC2 (stereo not shown) = 103
• Cc1c(-c2cnn(C)c2)nn(-c2ccccc2)c1NC(=O)NC1CCOc2cc(F)ccc21 (stereo not shown) = 93

Shifting focus to the compound that follows.
Asked: So what does the record say about Avg. POC for Cc1c(-c2ccc(=O)n(C)c2)nn(-c2ccccc2)c1NC(=O)NC1CN(CC(F)(F)F)Cc2ccccc21 (stereo not shown) ?
Given back: 104

* * *

Molecular target: SIK (Homo sapiens (Human))
Sequence (P57059 whole entry): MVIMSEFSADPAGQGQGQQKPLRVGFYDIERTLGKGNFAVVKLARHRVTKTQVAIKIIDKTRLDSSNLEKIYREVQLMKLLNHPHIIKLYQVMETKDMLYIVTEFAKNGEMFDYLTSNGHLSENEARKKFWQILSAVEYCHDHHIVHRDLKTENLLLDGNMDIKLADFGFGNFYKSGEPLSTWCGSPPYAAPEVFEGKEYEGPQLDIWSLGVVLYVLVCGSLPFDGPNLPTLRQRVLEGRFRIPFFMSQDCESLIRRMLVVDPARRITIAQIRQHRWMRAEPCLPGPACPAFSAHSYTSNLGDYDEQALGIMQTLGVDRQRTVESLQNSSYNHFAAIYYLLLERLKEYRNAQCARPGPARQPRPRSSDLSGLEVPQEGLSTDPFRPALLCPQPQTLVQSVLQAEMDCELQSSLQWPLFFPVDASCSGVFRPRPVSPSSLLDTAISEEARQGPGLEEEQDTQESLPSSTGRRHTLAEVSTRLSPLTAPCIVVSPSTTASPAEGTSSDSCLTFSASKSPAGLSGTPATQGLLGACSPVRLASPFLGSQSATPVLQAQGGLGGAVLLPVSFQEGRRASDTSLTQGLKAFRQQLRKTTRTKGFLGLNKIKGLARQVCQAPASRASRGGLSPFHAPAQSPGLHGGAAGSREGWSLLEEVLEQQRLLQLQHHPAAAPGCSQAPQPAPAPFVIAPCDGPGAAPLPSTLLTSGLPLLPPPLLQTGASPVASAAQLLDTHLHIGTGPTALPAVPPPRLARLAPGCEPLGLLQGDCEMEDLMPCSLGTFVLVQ
Experiment: KinaseProfiler off-target kinase profiling
Type: biochemical
Details: 10 μM, ATP near Km
measured_quantity: Avg. POC (POC)
Express the result in POC but write the number alone.

- Cc1c(-c2cnn(C)c2)nn(-c2ccccc2)c1NC(=O)NC1CCOc2cc(F)ccc21 (stereo not shown) [Example 12]: 133.5

Asked: So what does the record say about Avg. POC for Cc1c(-c2cnn(C)c2)nn(-c2ccccc2)c1NC(=O)N[C@H]1CCCc2ccccc21 [Example 2] ?
Given back: 121.5

Asked: So what does the record say about Avg. POC for COCc1ccc2c(c1)C(NC(=O)Nc1c(C)c(-c3cnn(C)c3)nn1-c1ccccc1)COC2 (stereo not shown) [Example 32] ?
Given back: 97

Asked: So what does the record say about Avg. POC for Cc1c(-c2ccc(=O)n(C)c2)nn(-c2ccccc2)c1NC(=O)NC1CN(CC(F)(F)F)Cc2ccccc21 (stereo not shown) [Example 26] ?
Given back: 121.5

* * *

Target: FGFR3 (Homo sapiens (Human))
Sequence (P22607 23-806): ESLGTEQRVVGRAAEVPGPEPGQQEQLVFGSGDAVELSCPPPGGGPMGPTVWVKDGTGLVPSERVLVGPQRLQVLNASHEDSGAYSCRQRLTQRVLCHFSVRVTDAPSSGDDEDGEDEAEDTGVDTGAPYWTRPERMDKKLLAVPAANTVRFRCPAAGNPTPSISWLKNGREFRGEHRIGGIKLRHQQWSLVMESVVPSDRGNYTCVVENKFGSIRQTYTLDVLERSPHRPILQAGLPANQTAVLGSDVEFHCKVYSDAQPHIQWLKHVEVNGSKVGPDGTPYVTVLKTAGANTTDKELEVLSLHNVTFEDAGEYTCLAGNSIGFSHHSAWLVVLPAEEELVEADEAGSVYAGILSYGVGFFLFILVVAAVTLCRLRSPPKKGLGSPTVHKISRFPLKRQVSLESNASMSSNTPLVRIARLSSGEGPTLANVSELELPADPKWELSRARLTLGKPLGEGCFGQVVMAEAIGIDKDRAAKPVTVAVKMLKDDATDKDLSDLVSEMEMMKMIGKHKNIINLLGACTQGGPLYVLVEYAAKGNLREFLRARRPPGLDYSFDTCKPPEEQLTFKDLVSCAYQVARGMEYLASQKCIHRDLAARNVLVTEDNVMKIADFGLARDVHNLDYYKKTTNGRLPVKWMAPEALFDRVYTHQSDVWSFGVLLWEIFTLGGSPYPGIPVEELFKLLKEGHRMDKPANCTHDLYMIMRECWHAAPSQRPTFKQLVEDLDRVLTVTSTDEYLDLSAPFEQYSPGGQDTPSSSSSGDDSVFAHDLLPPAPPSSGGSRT
Experiment: KinaseProfiler off-target kinase profiling
Assay type: biochemical
Conditions: 10 μM, ATP near Km
As shown below, each of these compounds has a reported Avg. POC value.
Express the result in POC but write the number alone.

• COCc1ccc2c(c1)C(NC(=O)Nc1c(C)c(-c3cnn(C)c3)nn1-c1ccccc1)COC2 (stereo not shown) = 107

Asked: So what does the record say about Avg. POC for Cc1c(-c2cnn(C)c2)nn(-c2ccccc2)c1NC(=O)NC1CCOc2cc(F)ccc21 (stereo not shown) ?
Given back: 109

Asked: So what does the record say about Avg. POC for Cc1c(-c2cnn(C)c2)nn(-c2ccccc2)c1NC(=O)N[C@H]1CCCc2ccccc21 ?
Given back: 113.5

Asked: So what does the record say about Avg. POC for Cc1c(-c2ccc(=O)n(C)c2)nn(-c2ccccc2)c1NC(=O)NC1CN(CC(F)(F)F)Cc2ccccc21 (stereo not shown) ?
Given back: 101
